Here the recorded GI50 is given for each entry.
Test system: T-47D breast
Test Summary: NCI tumour cell line growth inhibition, 48 h

Reported GI50, molecule `CCOC(=O)c1c(C)nc2c(c1N)CC(=O)N2Cc1ccc(OC)cc1` : ____
25.9 µM

Again, but for `CN(CCO)CC[C@H](CSc1ccccc1)Nc1ccc(S(=O)(=O)NC(=O)c2ccc(N3CCC([C@@H](O)c4ccccc4-c4ccc(Cl)cc4)CC3)cc2)cc1S(=O)(=O)C(F)(F)F`
4.26 µM

Again, but for `COc1ccc(C(=S)N2CCN(c3cccc(C)c3)CC2)cc1OC`
4.33 µM

Again, but for CCN1C(=O)N(CC)C2C1NN=c1s/c(=C\c3cccc(F)c3)c(=O)n12 (configuration not stated)
17.4 µM

Again, but for O=c1[nH]nnc2c1ncn2C1OC(CO)C(O)C1O (configuration not stated)
38.8 µM

Again, but for `Cc1cccc(/C=C/c2c(C(=O)/C=C/c3ccccc3)c(C)nc3ccccc23)c1`
1.29 µM

Again, but for `O.O.[NH-]C1(C(=O)O)CCCC1.[NH-]C1(C(=O)O)CCCC1.[Ni+2]`
> 100 µM

---

Tested on: SR leukemia
Test Summary: NCI tumour cell line growth inhibition, 48 h; in the data active = GI50 below about 0.43 µM; inactive = the rest
One label from this list, please: class 1 for active, class 0 for inactive

Some entries whose results are on file:
Smi | Assigned Label
O.O.[NH-]C1(C(=O)O)CCCC1.[NH-]C1(C(=O)O)CCCC1.[Ni+2] | class 0
Clc1nc(Cl)c2ncn(CC3(Cn4cnc5c(Cl)nc(Cl)nc54)COC3)c2n1 | class 1
COc1cc(/C=C\c2cc(OC)c(OC)c(OC)c2)cc(NC(=O)/C=C/c2cc(OC)c(OC)c(OC)c2)c1OC | class 1
COc1ccc(-c2nn(-c3cccc(Cl)c3)cc2-c2cc(-c3cccs3)[nH]c(=S)n2)cc1 | class 0

Now for a further compound.
Query: recorded result category for `O=C1C(Cl)=C(Nc2cccc(F)c2)C(=O)N1Cc1ccc(Cl)cc1` in this test
class 1

---

Here the recorded TGI is given for each entry.
Test system: KM12 colon
Test Summary: NCI tumour cell line growth inhibition, 48 h

Molecule | TGI
COC(=O)/C=C\COCC1C2CCC(=O)C21 (configuration not stated) | > 25 µM
Cc1ccc(C2=Nn3c(nc4sc(C)c(C)c4c3=O)SC2)cc1 | > 100 µM
N=C1C(c2nc3ccccc3s2)=C(O)CN1c1ccc(F)c(Cl)c1 | > 100 µM
OC1c2ccccc2CC12Cc1ccccc1C2 (configuration not stated) | > 100 µM
O=C1/C(=c2\s/c(=C\c3ccccc3)c(=O)n2-c2ccccc2)SC(=S)N1c1ccccc1 | > 100 µM

Reported TGI, molecule `COc1ccc([C@H]2CC(=O)C[C@H](c3ccc(OC)cc3)C23C(=O)c2ccccc2C3=O)cc1` : ____
> 100 µM

Again, but for `COc1ccc2nc3cc(Cl)ccc3c(NCCNC(=O)Cn3c(=O)n(C)c(=O)c4c3nc3c(c(=O)n(C)c(=O)n3C)[n+]4[O-])c2c1`
> 100 µM

Again, but for `C=C(C)[C@@H]1CC[C@]2(C)CC[C@]3(C)[C@H](CC[C@@H]4[C@@]5(C)CC[C@H](O)C(C)(C)[C@@H]5CC[C@]43C)[C@@H]12`
> 100 µM

Again, but for `Cc1nnn[n-]1.N.N.N.N.N.[Cl-].[Co+3]`
> 100 µM

Again, but for `c1ccc(-c2nnc(-c3ccccn3)c3c2C[C@@H]2C[C@@H]4Cc5c(-c6ccccn6)nnc(-c6ccccn6)c5[C@@H]4[C@H]32)nc1`
> 100 µM

Again, but for `O=S1(=O)OCCOS(=O)(=O)C1S(=O)(=O)c1ccc2ccccc2c1`
> 100 µM

Again, but for C=CCNC(=O)N(CCCCC(NC(C)=O)C(=O)NCc1ccccc1)Cc1ccccc1 (configuration not stated)
> 100 µM

Again, but for `Cc1ccc(Cc2n[nH]c(=O)n2Nc2ccccc2)cc1`
> 100 µM

Again, but for CC1(C)C2CCC13C(=O)C1OC3(C2)C2C(=O)c3cc4ccccc4cc3C(=O)C12 (configuration not stated)
25.1 µM

Again, but for `COc1ccc(/C=C2\NC(=S)N(/C=C3\C(=O)Oc4ccccc4C3=O)C2=O)cc1OC`
> 100 µM

Again, but for `Fc1ccc(C(OCCN2CCN(CCCCl)CC2)c2ccc(F)cc2)cc1`
38 µM

Again, but for `O.O.[NH-]C1(C(=O)O)CCCC1.[NH-]C1(C(=O)O)CCCC1.[Ni+2]`
> 100 µM

Again, but for `CCN(Cc1cc(Nc2nc(C)cn3c(-c4cn[nH]c4)cnc23)sn1)C(C)(C)CO`
10.4 µM

---

System: SN12C renal
Test Summary: NCI tumour cell line growth inhibition, 48 h
Experimental Readout: GI50

Reported GI50, molecule C=C(C)C(O)CCC1(C)C=Cc2c(c(C)cc3c2[nH]c2ccccc23)O1 (stereo not drawn) : ____
9.57 µM

Again, but for `COc1cccc(N2CCN(CC(=O)N3CCN(c4nnc(-c5ccc(Cl)cc5)c(-c5ccc(Cl)cc5)n4)CC3)CC2)c1`
23.1 µM

Again, but for `O=C1C(Cl)=C(Nc2cccc(F)c2)C(=O)N1Cc1ccc(Cl)cc1`
0.825 µM

---

Test system: SK-MEL-5 melanoma
Test Summary: NCI tumour cell line growth inhibition, 48 h
Experimental Readout: GI50

Compound | Observed Value
O=c1[nH]c(=O)c2cn[nH]c2[nH]1 | > 100 µM

Note: attention shifts to another entry.
What value of GI50 on SK-MEL-5 melanoma does `COc1ccc(/C=C/C(=O)c2cc(OC)c(OC)c(OC)c2)cc1OCc1cn(Cc2ccc(F)cc2)nn1` have?
3.24 µM

---

Tested on: MCF7 breast
Test Summary: NCI tumour cell line growth inhibition, 48 h; in the data active means GI50 below about 0.43 µM; inactive means the rest
One label from this list, please: yes (1) (active), no (0) (inactive)

Some entries whose results are on file:
Compound | Assigned Label
COc1cccc(N2CCN(CC(=O)N3CCN(c4nnc(-c5ccc(Cl)cc5)c(-c5ccc(Cl)cc5)n4)CC3)CC2)c1 | no (0)
COC12C=C/C(=C(/C(=O)OCc3cncnc3)C(=O)CCCCCCCCC3(OC)C=C/C(=C(/C(=O)OCc4cncnc4)C(=O)CCCCCCCC1)O3)O2 | yes (1)
O=C1C(Cl)=C(Nc2cccc(F)c2)C(=O)N1Cc1ccc(Cl)cc1 | no (0)
O=c1[nH]nnc2c1ncn2C1OC(CO)C(O)C1O (stereo unspecified) | no (0)
CN1CCC2(CC1)ONC1=NCCN12 | no (0)

Query: recorded result category for OC(Cc1ccncc1)C(Cl)(Cl)Cl (stereo unspecified) in this test
no (0)

Again, but for `C=C(CN1C(=O)CN(C)C1=O)c1ccc(C(=O)Nc2ccccc2N)cc1`
no (0)

Again, but for `CCN(Cc1cc(Nc2nc(C)cn3c(-c4cn[nH]c4)cnc23)sn1)C(C)(C)CO`
yes (1)

Again, but for `COC(=O)c1ccc(-c2nc3cc(Cl)c(Cl)cc3nc2C#N)cc1`
no (0)

Again, but for `CCOC(=O)c1c(C)nc2c(c1N)CC(=O)N2Cc1ccc(OC)cc1`
no (0)

Again, but for `CCOC(=O)/C(C=Nc1ccc(-c2nc3ccccc3[nH]2)cc1)=C(/C)O`
no (0)

---

System: MOLT-4 leukemia
Test Summary: NCI tumour cell line growth inhibition, 48 h
Experimental Readout: TGI

Reported TGI, compound `Cc1c2ccncc2c(C)c2c1[nH]c1ccc(OC(C)C)cc12` : ____
2.97 µM

Again, but for `O=c1ccn2n1Cc1ccccc1C2`
> 100 µM

Again, but for COC(=O)C1=C(C)C(=O)[C@]23C(CCCC[C@H]12)C(=O)[C@H](C(=O)OC)C3C (stereo partly specified)
> 100 µM

Again, but for `COc1ccc2nc3cc(Cl)ccc3c(NCCNC(=O)Cn3c(=O)n(C)c(=O)c4c3nc3c(c(=O)n(C)c(=O)n3C)[n+]4[O-])c2c1`
> 90.8 µM

Again, but for `CC(=O)c1ccc2c(c1)c1c(C)c3c[n+](C)ccc3c(C)c1n2C`
20.8 µM

Again, but for COC(=O)CC1C[C@H](C#N)N(C(=O)c2ccccc2)C[C@@H]1CC[N+](=O)[O-] (stereo partly specified)
> 100 µM

---

Tested on: HCT-15 colon
Test Summary: NCI tumour cell line growth inhibition, 48 h
Here the recorded TGI is given for each entry.

Field: example entries. Status: answers known.
Compound | TGI
COC1=C(N)C(=O)c2nc(C)ccc2C1=O | 3.49 µM
CCOc1cccc(/C=N/N=C2\C(=O)Nc3c(Cl)cc(Cl)cc32)c1O | > 100 µM
COc1c2cc(C(C)(C)C)cc1Cc1cccc(c1OCc1cccc([N+](=O)[O-])c1)Cc1cc(C(C)(C)C)cc(c1OC)Cc1cccc(c1OCc1cccc([N+](=O)[O-])c1)Cc1cc(C(C)(C)C)cc(c1OC)Cc1cccc(c1OCc1cccc([N+](=O)[O-])c1)C2 | > 50 µM
CN(Cc1ccccc1)C(=NC#N)N(Cc1ccccc1)Cc1ccccc1 | 71 µM
OCCOCCN1CCN(CCCN2c3ccccc3Sc3ccc(C(F)(F)F)cc32)CC1 | 38.3 µM
CC(=O)C1(Cc2cccc3ccccc23)S(=O)(=O)OCCOS1(=O)=O | 41.6 µM

What value of TGI on HCT-15 colon does CC1(C)C2CCC13C(=O)C1OC3(C2)C2C(=O)c3cc4ccccc4cc3C(=O)C12 (configuration not stated) have?
68.8 µM

Again, but for COC(=O)[C@H](Cc1ccccc1)NP(=O)(OCCC#N)OCC1OC(n2cc(C)c(=O)[nH]c2=O)CC1N=[N+]=[N-] (some centres not stated)
> 100 µM

Again, but for `CSC(=Nc1nnc(-c2ccc([N+](=O)[O-])cc2)s1)SC`
> 100 µM

Again, but for `c1ccc(-c2nnc(-c3ccccn3)c3c2C[C@@H]2C[C@@H]4Cc5c(-c6ccccn6)nnc(-c6ccccn6)c5[C@@H]4[C@H]32)nc1`
> 100 µM

Again, but for `Cc1ccc2c(c1)C(=O)N(N(C)C)CC(=O)N2`
> 100 µM
